Tested on: TK-10 renal
assay-details: NCI-60 one-dose screen, 48 h (100 = growth as untreated, 0 = no growth, -100 = all killed)
measurement-context: 10 µM unless noted
Compounds without any hit were thinned out: in the full panel of roughly 83,000, 20% have a hit. Active and inactive are the calls of the source. How the source made its calls: active means growth percent below 10; inactive means the rest.
What growth was measured for each of the following?

Please review the entries below; each comes with its answer.
{"compound": "CC(C)(C)OC(=O)N1CCCN(CCNc2nccc(-c3c(-c4cccc(O)c4)nc4sccn34)n2)S1(=O)=O", "observed": "121% (inactive)"}
{"compound": "CS(=O)(=O)c1ccc(C(=O)Nc2ccc(Cl)c(-c3ccccn3)c2)c(Cl)c1", "observed": "11.9% (inactive)"}
{"compound": "COc1cc(CN(CCC(O)N2CCCC2=O)Cc2ccc3c(c2)OCO3)cc(OC)c1OC (stereo not drawn)", "observed": "112% (inactive)"}
{"compound": "Cc1ccc(Nc2cc(Cl)c([N+](=O)[O-])cc2[N+](=O)[O-])cc1", "observed": "15.5% (inactive)"}
{"compound": "Cc1csc(N/N=C/c2ccncc2)n1", "observed": "91% (inactive)"}

Provide growth for all items below, preserving their order.
1. O=C(/C=C/c1cn(-c2ccccc2)nc1-c1ccccc1)OCc1cn(-c2cccc([N+](=O)[O-])c2)nn1
2. COc1ccc(/C=C(\C#N)c2cc(OC)c(OC)c(OC)c2)cc1

1: 98.6% (inactive); 2: 74.1% (inactive)

* * *

Test system: LOX IMVI melanoma
assay-details: NCI-60 one-dose screen, 48 h (100 = growth as untreated, 0 = no growth, -100 = all killed)
measurement-context: 10 µM unless noted
The panel holds about 83,000 compounds, 20% with a hit somewhere; the sample as a whole holds those more often.
measured-endpoint: growth (%)
Answers are plain numbers, in %.

{"compound": "O=C(/C=C/c1ccccc1Br)c1cccc(OCCCCOc2cccc(C(=O)/C=C/c3ccccc3Br)c2)c1", "measured-endpoint": "growth", "units-symbol": "%", "observed": 86.4}
{"compound": "COc1cc2ncnc(Nc3ccc(S(=O)(=O)Nc4cc(C)on4)cc3)c2cc1OCCCN1CCN(c2ccc([N+](=O)[O-])cc2)CC1", "measured-endpoint": "growth", "units-symbol": "%", "observed": 96.1}
{"compound": "CC(C)CC1NC(=O)C(CC(C)C)N(CO)C1=O (centres undefined)", "measured-endpoint": "growth", "units-symbol": "%", "observed": 106}

Could you report growth for every entry in the following list?
1. C=C1C(=O)O[C@H]2[C@H]1CC/C(COC(=O)NCc1cn(C)c3ccccc13)=C\CC[C@@]1(C)O[C@@H]21
2. CCn1c(Cc2ccccc2Nc2c(Cl)cccc2Cl)nnc1SCC(=O)Nc1cccc(OC)c1
3. Clc1cccc(CNc2c3ccccc3nc3ccccc23)c1
4. S=C(Nc1ccc(Cl)cc1)Nc1ccc(Cl)cc1 (tested in a mixture with another compound)
5. Clc1cc2nc(-c3ccccc3)c(-c3ccccc3)nc2cc1Cl

1. -65
2. 79.9
3. 1.75
4. 5.65
5. 86.2

Return reported growth; argument: O=S1(=O)NCCN1CCNc1nccc(-c2c(-c3cccc(O)c3)nc3sccn23)n1
55

* * *

Test system: UO-31 renal
assay-details: NCI-60 one-dose screen, 48 h (100 = growth as untreated, 0 = no growth, -100 = all killed)
measurement-context: 10 µM unless noted
The panel holds about 83,000 compounds, 20% with a hit somewhere; the sample as a whole holds those more often.
measured-endpoint: growth (%)
Numbers only, in %.

{"compound": "Cc1c2c(cc3c1[nH]c1ccccc13)C=NCC2", "observed": 80}
{"compound": "O=C1OC(/C=C/c2ccccc2)=NC/1=C/c1ccccc1[N+](=O)[O-]", "observed": 66.5}

I have 6 compounds here; please give me growth for each one.
1. CC1(C)CC(=O)c2cc3c(N)c(C(=O)Nc4ccc(Cl)cc4)sc3nc2C1
2. O=C(Nc1ccc(Br)cc1)c1ccc(Cl)c(Cl)c1
3. O=C(NCCN1CCCCC1)n1cc(-c2ccncc2)c(-c2ccc(Cl)c(O)c2)n1
4. COC(=O)[C@@H](Cc1c[nH]c2ccccc12)NC(=O)/C=C/c1ccccc1
5. Oc1ccc(-c2nnc3c4[nH]ccc4ncn23)cc1
6. O=C(CSc1nnc(Cc2ccccc2Nc2c(Cl)cccc2Cl)n1-c1ccccc1)N1N=C(c2ccc3ccccc3c2)CC1c1ccc(Cl)cc1 (stereo not given)

109
59.1
55.4
36.8
76.3
80

Go through the items and report each one's growth.
1. COc1cc(C2CC(c3cccc(Nc4ccnc5cc(Cl)ccc45)c3)=NN2C=O)cc(OC)c1OC (stereo not given)
2. COc1cc2ncnc(Nc3ccc(S(=O)(=O)Nc4nccs4)cc3)c2cc1OCCCN1CCOCC1

2.53
83.6

* * *

Tested on: OVCAR-4 ovarian
assay-details: NCI-60 one-dose screen, 48 h (100 = growth as untreated, 0 = no growth, -100 = all killed)
measurement-context: 10 µM unless noted
About 83,000 compounds went through this panel and 20% of them were active in at least one assay; those are over-represented in the sample as a whole.
measured-endpoint: growth (%)
Answers are plain numbers, in %.

Previously resolved entries follow.
{"compound": "CC(C)CCC(=O)[C@@H](C)[C@H]1[C@@H](OC2OCC(O)C(O)C2NS(C)(=O)=O)C[C@H]2[C@@H]3CC=C4C[C@@H](O)CC[C@]4(C)[C@H]3CC[C@]12C (stereo partly drawn)", "units-symbol": "%", "observed": 75.5}
{"compound": "CC(NC(=O)c1ccccc1)C(=O)Nc1ccccc1 (stereo not drawn)", "units-symbol": "%", "observed": 114}
{"compound": "CC(C)(C)c1nn(-c2ccccc2)c2c1C(=O)CSC(c1ccccc1Cl)N2 (stereo not drawn)", "units-symbol": "%", "observed": 72.5}

Please state, for each entry, its recorded growth.
1. CCCCOc1nc2ccccc2cc1/C=C/c1cc(/C=C/c2cc3ccccc3nc2OCCCC)n(-c2ccccc2)n1
2. CC(=O)c1ccc(Br)c([N+](=O)[O-])c1
3. C[C@@H]1N=C(c2ccc3ccccc3c2)Nc2nc3ccccn3c2C1=O
4. CC(C)(C)c1ccc(OC(=O)Nc2ccccc2)cc1
5. COc1cccc(-c2nc3sccn3c2-c2ccnc(NCCN3CCCNS3(=O)=O)n2)c1
6. COc1ccc(-c2conc2-n2nc(-c3ccccc3)nc2-c2ccccc2)cc1
7. COc1cc(C2CC(c3cccc(Nc4ccnc5cc(Cl)ccc45)c3)=NN2C=O)cc(OC)c1OC (stereo not drawn)
8. CCCCCCCCCCCCC1CCC(=O)O1 (stereo not drawn)

[109, 114, 74.5, 113, 81.5, 104, -16.7, 94.1]

* * *

Test system: MDA-MB-231 breast
assay-details: NCI-60 one-dose screen, 48 h (100 = growth as untreated, 0 = no growth, -100 = all killed)
measurement-context: 10 µM unless noted
Compounds without any hit were thinned out: in the full panel of roughly 83,000, 20% have a hit.
Please provide measured growth for the entries that follow.
One number for each entry, in %.

{"molecule": "O=C1c2cccc3cccc(c23)C(=O)N1CCCCCCCCCCN1C(=O)c2cccc3cccc(c23)C1=O", "growth / %": 108}
{"molecule": "C[N+](C)(C)CC(=O)N/N=C\\c1ccco1", "growth / %": 118}
{"molecule": "N/N=C(\\C(=N\\N)c1ccccc1)c1ccccc1", "growth / %": 111}
{"molecule": "CCCCCCCCCCCCCCCCCC(=O)OCCCCCCCCCCCCC", "growth / %": 135}
{"molecule": "COC(=O)[C@@H](Cc1c[nH]c2ccccc12)NC(=O)/C=C/c1ccccc1", "growth / %": 37.7}

Here is another compound to look at.
Which growth is reported for this compound? CCN(CC)c1ccc(/C=C2/NC(=O)NC2=O)cc1
57.5

* * *

Tested on: IGROV1 ovarian
assay-details: NCI-60 one-dose screen, 48 h
measurement-context: 10 µM unless noted
This is part of a sample that, as a whole, favours compounds with a hit. Of some 83,000 tested, about 20% had one in any assay. Active and inactive are the calls of the source. The calls were made as follows: active = growth percent below 10; inactive = the rest.
Parameter call: string, one of active, inactive

The following molecules have reported results that may help.
{"molecule": "COc1cnc2c(c1)C(=O)c1c-2n(CCCNC(C)C)c(=O)c2cc(Cl)ccc12", "qualitative-label": "active"}
{"molecule": "COc1nccc2c(Sc3ccccc3)nc(N)nc12", "qualitative-label": "inactive"}
{"molecule": "Nc1cc(C(=O)O)cc(C(=O)O)c1", "qualitative-label": "inactive"}
{"molecule": "COc1ccc(-c2cc(-c3ccc(OC)cc3)c3sc(=O)[nH]c3n2)cc1", "qualitative-label": "inactive"}
{"molecule": "C=C[C@H]1CCC/C=C/[C@@H]2C[C@H](O)C[C@H]2[C@H](O)/C=C/C(=O)O1", "qualitative-label": "active"}

Check the results log: what was the call for O=C(CCl)Nc1ccc2c(c1)C(=O)c1ccccc1C2=O ?
active

GET /call?item= COc1ccc(-n2c(COc3ccc(F)cc3)n[nH]c2=S)cc1 returns the recorded outcome of this test.
inactive

For this molecule, state the assay outcome: COc1cc(NC(=O)CSc2nc3ccc(Cl)cc3c(=O)n2Cc2ccccc2)cc(OC)c1OC
inactive

Returns: the outcome recorded for NC(N)=NC1CCCCC1 in this assay.
inactive

What was the test verdict on CC(C)CCSc1nc(Nc2ccccc2)c(C#N)c(-c2ccc(F)cc2)n1 ?
inactive

Recorded test call requested for COc1ccc(C2c3cccn3-c3ccccc3N2C(C)=O)cc1 (stereo not drawn)
inactive
